biological target: human M2 receptor (Homo sapiens (Human)); assay: Radioligand (tritiated N-methylscopolamine) binding assay, M2
Sequence (P08172 whole entry): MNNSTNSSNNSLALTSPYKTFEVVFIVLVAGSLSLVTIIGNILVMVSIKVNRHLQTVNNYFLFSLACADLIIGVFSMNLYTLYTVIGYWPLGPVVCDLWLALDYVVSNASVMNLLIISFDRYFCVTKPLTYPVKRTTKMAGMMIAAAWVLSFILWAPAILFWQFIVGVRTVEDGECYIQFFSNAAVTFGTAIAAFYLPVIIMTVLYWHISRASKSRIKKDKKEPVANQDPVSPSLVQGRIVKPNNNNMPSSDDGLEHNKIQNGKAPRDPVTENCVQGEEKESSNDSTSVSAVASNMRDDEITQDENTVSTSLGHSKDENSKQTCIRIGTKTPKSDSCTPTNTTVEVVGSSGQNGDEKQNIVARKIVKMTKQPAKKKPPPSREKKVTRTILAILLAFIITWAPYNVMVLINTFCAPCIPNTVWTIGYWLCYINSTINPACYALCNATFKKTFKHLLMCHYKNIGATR
pKi: −log10 of the molar value.
property.measured: pKi

1) C[C@@H]1CN(c2ccc(C#N)c(C(F)(F)F)c2)CCN1C(=O)NCCC1CCN(Cc2ccccc2)CC1
7.00 to 8.00

----------
Biological target: human M4 receptor (Homo sapiens (Human), UniProt P08173)
Sequence (P08173 whole entry): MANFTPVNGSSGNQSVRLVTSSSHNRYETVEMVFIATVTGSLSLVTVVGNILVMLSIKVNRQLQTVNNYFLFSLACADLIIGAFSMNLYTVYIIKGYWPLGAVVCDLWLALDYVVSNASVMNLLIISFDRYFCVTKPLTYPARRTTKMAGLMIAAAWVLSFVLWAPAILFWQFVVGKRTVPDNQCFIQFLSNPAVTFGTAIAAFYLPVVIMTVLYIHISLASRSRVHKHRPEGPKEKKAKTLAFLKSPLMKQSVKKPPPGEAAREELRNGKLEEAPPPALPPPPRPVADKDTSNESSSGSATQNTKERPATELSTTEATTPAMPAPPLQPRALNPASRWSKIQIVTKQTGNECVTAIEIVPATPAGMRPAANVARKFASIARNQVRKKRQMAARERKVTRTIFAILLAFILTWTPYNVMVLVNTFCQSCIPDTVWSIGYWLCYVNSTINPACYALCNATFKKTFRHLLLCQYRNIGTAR
Test: Radioligand (tritiated N-methylscopolamine) binding assay, M4
Details: Ki against the M4 receptor; membranes from CHO cells expressing human M4; tritiated N-methylscopolamine 1.5 nM; read-out: Ki
Protocol: Binding affinity (Ki) of compounds was measured by inhibition of radioligand binding to membranes from CHO cells expressing human M1, M2, M3, M4 and M5 receptors. […] Harvesting and radioactivity counting was conducted as previously described (see, e.g., Hoare et al., Mol. Pharmacol. 2003 63(3):751-65); Erratum at Mol. Pharmacol. 2005 July; 68(1): 260).
property.measured: Ki

1. C[C@@H]1CN(c2ncc(C(F)(F)F)cn2)CCN1C(=O)NCCC1CCN(Cc2ccncc2)CC1
100 to 1000 nM
2. COC1(C(=O)NCCC2CCN(Cc3ccccc3)CC2)CCN(c2ccc(OC(F)(F)F)cn2)CC1
100 to 1000 nM
3. C[C@H]1CN(c2ccc(C#N)cn2)CCC1C(=O)NCCC1CCN(Cc2ccccc2)CC1 (some centres unmarked)
< 10 nM
4. Cc1c(C(=O)NCCC2CCN(Cc3ccccc3)CC2)cnc2cc(-c3cc(F)cc(F)c3)nn12
< 10 nM
5. N#Cc1ccc(-n2cnc(C(=O)NCCC3CCN(Cc4ccccc4)CC3)c2)nc1
100 to 1000 nM
6. C[C@@H]1CN(c2cc(F)c(F)c(F)c2)CCN1C(=O)NCCC1CCN(CC2CCCCC2)CC1
10 to 100 nM
7. CC(C)CCN1CCC(CCNC(=O)N2[C@H](C)CN(c3ncc(C#N)cn3)C[C@@H]2C)CC1
100 to 1000 nM
8. C[C@@H]1CN(c2ccc(C(F)(F)F)nc2)CCN1C(=O)NCCC1CCN(Cc2ccccc2)CC1
10 to 100 nM

Data provenance: patent US11033539B2
